These data points were gathered from patent US10138260B2.

# study.target: TAFIa (Homo sapiens)
# Sequence (Q96IY4 115-423): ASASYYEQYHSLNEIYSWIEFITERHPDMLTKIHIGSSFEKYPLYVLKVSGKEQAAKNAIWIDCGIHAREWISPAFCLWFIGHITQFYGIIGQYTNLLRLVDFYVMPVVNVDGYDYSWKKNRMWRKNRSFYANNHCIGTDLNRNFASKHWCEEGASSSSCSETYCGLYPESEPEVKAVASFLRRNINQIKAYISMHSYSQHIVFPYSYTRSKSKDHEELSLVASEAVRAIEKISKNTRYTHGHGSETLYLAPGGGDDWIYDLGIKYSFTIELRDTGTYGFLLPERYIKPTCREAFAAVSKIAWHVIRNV
# protocol: Inhibition of TAFIa (hippuryl-Arg test)
# Format: biochemical
# settings: compound at 10 nM; TAFIa 2 nM, hippuryl-arginine 5 mM, 45 minutes; relative to control containing the carrier
Output schema: class label derived from inhibition at 0.01 µM. Mapping: low band = under 70%, middle band = from 70% up to 80%, high band = 80% and over

Ask: Bin this entry: "Cn1nccc1-c1cc(O)ccc1CN1CCP(=O)(O)[C@](CCCCN)(C(=O)O)C1"
Result: high band

Ask: Bin this entry: "COc1ccc(-c2ccccc2CN2CCP(=O)(O)[C@](CCCCN)(C(=O)O)C2)cc1OC"
Result: high band

Ask: Bin this entry: "Cc1ncc(-c2ccccc2CN2CCP(=O)(O)[C@](CCCCN)(C(=O)O)C2)n1C"
Result: high band

Ask: Bin this entry: "NCCCC[C@@]1(C(=O)O)CN(Cc2ccc(F)cc2-c2ccc(O)nc2)CCP1(=O)O"
Result: middle band

Ask: Bin this entry: NCCCCC1(C(=O)O)CN(Cc2ccccc2-c2ccc(=O)[nH]c2)CCP1(=O)O (centres unmarked)
Result: low band

Ask: Bin this entry: "NCCCC[C@@]1(C(=O)O)CN(Cc2ccc(F)cc2-c2cccnc2)CCP1(=O)O"
Result: high band

Ask: Bin this entry: NCCCCC1(C(=O)O)CN(Cc2ccccc2-c2nccs2)CCP1(=O)O (centres unmarked)
Result: low band

Ask: Bin this entry: "NCCCC[C@@]1(C(=O)O)CN(Cc2ccc(O)cc2-c2ccncc2)CCP1(=O)O"
Result: middle band

Ask: Bin this entry: "COc1ccc(-c2cc(F)ccc2CN2CCP(=O)(O)[C@](CCCCN)(C(=O)O)C2)cc1OC"
Result: middle band

Ask: Bin this entry: "NCCCC[C@@]1(C(=O)O)CN(Cc2ccccc2-c2ccc3ccccc3c2)CCP1(=O)O"
Result: middle band

Ask: Bin this entry: "NCCCC[C@@]1(C(=O)O)CN(Cc2ccccc2-c2cnc3ccccn23)CCP1(=O)O"
Result: middle band

Ask: Bin this entry: "COc1ccc(-c2cc(O)ccc2CN2CCP(=O)(O)[C@](CCCCN)(C(=O)O)C2)cn1"
Result: middle band

Ask: Bin this entry: NCCCCC1(C(=O)O)CN(Cc2ccc(F)cc2-c2ccc(O)cc2)CCP1(=O)O (centres unmarked)
Result: low band

Ask: Bin this entry: "NCCCC[C@@]1(C(=O)O)CN(Cc2ccc(F)cc2-c2ccccc2Cl)CCP1(=O)O"
Result: low band

Ask: Bin this entry: "NCCCC[C@@]1(C(=O)O)CN(Cc2ccc(F)cc2-c2nccs2)CCP1(=O)O"
Result: low band

Ask: Bin this entry: "NCCCC[C@@]1(C(=O)O)CN(Cc2ccccc2-c2ccc(O)nc2)CCP1(=O)O"
Result: low band

---

# study.target: TAFIa (Homo sapiens)
# protocol: Inhibition of TAFIa (hippuryl-Arg test)
# Format: biochemical
# settings: compound at 20 nM; TAFIa 2 nM, hippuryl-arginine 5 mM, 45 minutes; relative to control containing the carrier
What inhibition at 0.02 µM was measured for each of the following?
Note: unit % is implicit; provide only the numeric part.

Ask: Write inhibition at 0.02 µM of CC(C)c1ccccc1CN1CCP(=O)(O)C(CCCCN)(C(=O)O)C1 (stereo not shown) ; system used: TAFIa (Homo sapiens)
Result: 51

Ask: Write inhibition at 0.02 µM of "NCCCC[C@@]1(C(=O)O)CN(Cc2ccc(F)cc2-c2ccccc2Cl)CCP1(=O)O" ; system used: TAFIa (Homo sapiens)
Result: 80

Ask: Write inhibition at 0.02 µM of NCCCCC1(C(=O)O)CN(Cc2ccccc2-c2ccc(Cl)c(Cl)c2)CCP1(=O)O (stereo not shown) ; system used: TAFIa (Homo sapiens)
Result: 77

Ask: Write inhibition at 0.02 µM of "Cn1cncc1-c1cc(F)ccc1CN1CCP(=O)(O)[C@](CCCCN)(C(=O)O)C1" ; system used: TAFIa (Homo sapiens)
Result: 83

Ask: Write inhibition at 0.02 µM of "CC(C)(C)c1ccccc1CN1CCP(=O)(O)[C@](CCCCN)(C(=O)O)C1" ; system used: TAFIa (Homo sapiens)
Result: 46

Ask: Write inhibition at 0.02 µM of "Cn1nccc1-c1cc(O)ccc1CN1CCP(=O)(O)[C@](CCCCN)(C(=O)O)C1" ; system used: TAFIa (Homo sapiens)
Result: 89

Ask: Write inhibition at 0.02 µM of NCCCCC1(C(=O)O)CN(Cc2ccccc2-c2cccc(-c3ccccc3)c2)CCP1(=O)O (stereo not shown) ; system used: TAFIa (Homo sapiens)
Result: 73

Ask: Write inhibition at 0.02 µM of "COc1ccc(-c2cc(F)ccc2CN2CCP(=O)(O)[C@](CCCCN)(C(=O)O)C2)cc1OC" ; system used: TAFIa (Homo sapiens)
Result: 83

Ask: Write inhibition at 0.02 µM of NCCCCC1(C(=O)O)CN(Cc2ccccc2-c2cccc3ccccc23)CCP1(=O)O (stereo not shown) ; system used: TAFIa (Homo sapiens)
Result: 71

Ask: Write inhibition at 0.02 µM of "NCCCC[C@@]1(C(=O)O)CN(Cc2ccccc2-c2cnc3ccccn23)CCP1(=O)O" ; system used: TAFIa (Homo sapiens)
Result: 84

Ask: Write inhibition at 0.02 µM of "NCCCC[C@@]1(C(=O)O)CN(Cc2ccccc2-c2cccc3ccccc23)CCP1(=O)O" ; system used: TAFIa (Homo sapiens)
Result: 73

Ask: Write inhibition at 0.02 µM of NCCCCC1(C(=O)O)CN(Cc2ccc(Cl)cc2-c2ccc(Cl)cc2)CCP1(=O)O (stereo not shown) ; system used: TAFIa (Homo sapiens)
Result: 90

Ask: Write inhibition at 0.02 µM of "NCCCC[C@@]1(C(=O)O)CN(Cc2ccc(O)cc2-c2cnc3ccccn23)CCP1(=O)O" ; system used: TAFIa (Homo sapiens)
Result: 93

Ask: Write inhibition at 0.02 µM of "NCCCC[C@@]1(C(=O)O)CN(Cc2ccc(O)cc2-c2cccs2)CCP1(=O)O" ; system used: TAFIa (Homo sapiens)
Result: 91

Ask: Write inhibition at 0.02 µM of "NCCCC[C@@]1(C(=O)O)CN(Cc2ccc(F)cc2-c2ccc3ccccc3c2)CCP1(=O)O" ; system used: TAFIa (Homo sapiens)
Result: 91

Ask: Write inhibition at 0.02 µM of "COc1ccc(-c2ccccc2CN2CCP(=O)(O)[C@](CCCCN)(C(=O)O)C2)cn1" ; system used: TAFIa (Homo sapiens)
Result: 91

Ask: Write inhibition at 0.02 µM of "CS(=O)(=O)c1ccccc1-c1ccccc1CN1CCP(=O)(O)[C@](CCCCN)(C(=O)O)C1" ; system used: TAFIa (Homo sapiens)
Result: 46

Ask: Write inhibition at 0.02 µM of "Cn1nccc1-c1cc(F)ccc1CN1CCP(=O)(O)[C@](CCCCN)(C(=O)O)C1" ; system used: TAFIa (Homo sapiens)
Result: 91

Ask: Write inhibition at 0.02 µM of NCCCCC1(C(=O)O)CN(Cc2ccccc2-c2ccc3ccccc3c2)CCP1(=O)O (stereo not shown) ; system used: TAFIa (Homo sapiens)
Result: 66

Ask: Write inhibition at 0.02 µM of "NCCCC[C@@]1(C(=O)O)CN(Cc2ccc(F)cc2-c2nccs2)CCP1(=O)O" ; system used: TAFIa (Homo sapiens)
Result: 52

Ask: Write inhibition at 0.02 µM of "NCCCC[C@@]1(C(=O)O)CN(Cc2ccccc2-c2cccc3cnccc23)CCP1(=O)O" ; system used: TAFIa (Homo sapiens)
Result: 91

Ask: Write inhibition at 0.02 µM of "Cn1nc(C(F)(F)F)cc1-c1ccccc1CN1CCP(=O)(O)[C@](CCCCN)(C(=O)O)C1" ; system used: TAFIa (Homo sapiens)
Result: 89

Ask: Write inhibition at 0.02 µM of "Cc1ncc(-c2ccccc2CN2CCP(=O)(O)[C@](CCCCN)(C(=O)O)C2)n1C" ; system used: TAFIa (Homo sapiens)
Result: 97

Ask: Write inhibition at 0.02 µM of "NCCCC[C@@]1(C(=O)O)CN(Cc2ccccc2-c2cccs2)CCP1(=O)O" ; system used: TAFIa (Homo sapiens)
Result: 88

Ask: Write inhibition at 0.02 µM of "NCCCC[C@@]1(C(=O)O)CN(Cc2ccc(F)cc2-c2cncnc2)CCP1(=O)O" ; system used: TAFIa (Homo sapiens)
Result: 79

Ask: Write inhibition at 0.02 µM of "COc1cc(-c2ccccc2CN2CCP(=O)(O)[C@](CCCCN)(C(=O)O)C2)ccn1" ; system used: TAFIa (Homo sapiens)
Result: 89

Ask: Write inhibition at 0.02 µM of "NCCCC[C@@]1(C(=O)O)CN(Cc2ccc(F)cc2-c2cccc(F)c2)CCP1(=O)O" ; system used: TAFIa (Homo sapiens)
Result: 88

Ask: Write inhibition at 0.02 µM of "NCCCC[C@@]1(C(=O)O)CN(Cc2ccccc2-c2cccnc2)CCP1(=O)O" ; system used: TAFIa (Homo sapiens)
Result: 95
